Below, each entry is listed with its recorded IC50.
- target: UniProtKB P00803
- measurement-description: Biochemical SPase activity assay (fluorogenic peptide substrate), E. coli enzyme
Peptide text beside a SMILES is read from it. * marks the point of attachment. boroAla((+)-pinanediol) = C[C@H](N*)B1O[C@@H]2C[C@@H]3C[C@@H](C3(C)C)[C@]2(C)O1; Biphenylcarbonyl(4'-Bu) = CCCCc1ccc(-c2ccc(C(=O)*)cc2)cc1; X11 = CC[C@H](N*)B1OC2C[C@@H]3C[C@@H](C3(C)C)[C@]2(C)O1; X1 = C[C@H](N*)B1OC2C[C@@H]3C[C@@H](C3(C)C)[C@]2(C)O1; βAla = NCCC(=O)O
measure-name: IC50 (nM)

[[record]]
compound = "CCCCc1ccc(-c2ccc(C(=O)NCCC(=O)N[C@@H](CCCCN)C(=O)N[C@@H](CCCCN)C(=O)N[C@@H](C)C(=O)N[C@@H](CC(N)=O)C(=O)N[C@@H](C)B3OC4C[C@@H]5C[C@@H](C5(C)C)[C@]4(C)O3)cc2)cc1 (stereo partly shown) [Compound 197] ({Biphenylcarbonyl(4'-Bu)-βAla}-KKAN-X1)"
assay_result = 11

[[record]]
compound = "CCCCc1ccc(-c2ccc(C(=O)N[C@@H](CCN)C(=O)N[C@H](C(=O)N[C@@H](C)C(=O)N[C@@H](CCCCN)C(=O)N[C@@H](C)B3OC4C[C@@H]5C[C@@H](C5(C)C)[C@]4(C)O3)[C@@H](C)O)cn2)cc1 (stereo partly shown) [Compound 234]"
assay_result = 8.3

[[record]]
compound = "CCCCc1ccc(-c2ccc(C(=O)N[C@@H](CCCCN)C(=O)N3CCC[C@H]3C(=O)N[C@@H](C)C(=O)N[C@@H](CC(N)=O)C(=O)N[C@@H](C)B3O[C@@H]4C[C@@H]5C[C@@H](C5(C)C)[C@]4(C)O3)cc2)cc1 [Compound 133] ({Biphenylcarbonyl(4'-Bu)}-KPAN-{boroAla((+)-pinanediol)})"
assay_result = 15

[[record]]
compound = "CCCCc1ccc(-c2ccc(C(=O)NCCC(=O)N[C@@H](CCCCN)C(=O)N[C@H](C(=O)N[C@@H](C)C(=O)N[C@@H](CC(N)=O)C(=O)N[C@@H](CC)B3OC4C[C@@H]5C[C@@H](C5(C)C)[C@]4(C)O3)[C@@H](C)O)cc2)cc1 (stereo partly shown) [Compound 203] ({Biphenylcarbonyl(4'-Bu)-βAla}-KTAN-X11)"
assay_result = 130


* * *

Below, each entry is listed with its recorded pIC50.
- target: S. aureus SPase (Staphylococcus aureus)
- measurement-description: biochemical
pIC50: −log10 of the molar value. Square brackets hold non-standard residues; d marks the D form. Peptide text beside a SMILES is read from it. * marks the point of attachment. ξ: configuration not given here. boroAla((+)-pinanediol) = C[C@H](N*)B1O[C@@H]2C[C@@H]3C[C@@H](C3(C)C)[C@]2(C)O1; X7 = CC1(C)[C@@H]2C[C@H]3OB([C@@H]4CCCN4*)O[C@@]3(C)[C@H]1C2; Biphenylcarbonyl(4'-Bu) = CCCCc1ccc(-c2ccc(C(=O)*)cc2)cc1; X1 = C[C@H](N*)B1OC2C[C@@H]3C[C@@H](C3(C)C)[C@]2(C)O1; Benzoyl(4-(4-Cl-Ph)) = O=C(c1ccc(-c2ccc(Cl)cc2)cc1)*; Benzoyl(4-hexyl) = CCCCCCc1ccc(C(=O)*)cc1; Pro(4S-NH2) = N[C@@H]1CN[C@H](C(=O)O)C1; NMeThr(3ξ) = CN[C@H](C(=O)O)C(C)O; Gly(cPr) = N[C@H](C(=O)O)C1CC1; Thr(3ξ) = CC(O)[C@H](N)C(=O)O; NMeK = CN[C@@H](CCCCN)C(=O)O; NMeV = CN[C@H](C(=O)O)C(C)C; boroAla = C[C@H](N*)B(O)O; Dab = NCC[C@H](N)C(=O)O; Dap = NC[C@H](N)C(=O)O; βAla = NCCC(=O)O
measure-name: pIC50

[[record]]
molecule = "CCCCc1ccc(-c2ccc(C(=O)N[C@H](CO)C(=O)N[C@H](C)C(=O)NCC(=O)N(C)[C@H](C(=O)N[C@@H](C)C(=O)N[C@@H](CC(N)=O)C(=O)N[C@@H](C)B3OC4C[C@@H]5C[C@@H](C5(C)C)[C@]4(C)O3)C(C)C)cc2)cc1 (some centres unmarked) [Compound 230] ({Biphenylcarbonyl(4'-Bu)}-[dS][dA]G[NMeV]AN-X1)"
assay_result = 6.82

[[record]]
molecule = "CCCCc1ccc(-c2ccc(C(=O)N[C@@H](CCCCN)C(=O)N[C@H](C(=O)N[C@@H](C)C(=O)N[C@@H](CCCCN)C(=O)N[C@@H](C)B3OC4C[C@@H]5C[C@@H](C5(C)C)[C@]4(C)O3)[C@@H](C)O)cc2)cc1 (some centres unmarked) [Compound 132] ({Biphenylcarbonyl(4'-Bu)}-KTAK-X1)"
assay_result = 7.11

[[record]]
molecule = "CC(C)C[C@H](NC(=O)[C@H](C)NC(=O)[C@H](CCN)NC(=O)[C@H](CCN)NC(=O)c1ccc(-c2ccc(Cl)cc2)cc1)C(=O)N[C@@H](C)B(O)O [Compound 177] ({Benzoyl(4-(4-Cl-Ph))}-[Dab][Dab]AL-boroAla)"
assay_result = 6.19

[[record]]
molecule = "CCCCc1ccc(-c2ccc(C(=O)NCCC(=O)N3C[C@@H](N)C[C@H]3C(=O)N[C@H](C(=O)N[C@@H](C)C(=O)N[C@@H](CC(N)=O)C(=O)N[C@@H](C)B3OC4C[C@@H]5C[C@@H](C5(C)C)[C@]4(C)O3)[C@@H](C)O)cc2)cc1 (stereo partly drawn) [Compound 213] ({Biphenylcarbonyl(4'-Bu)-βAla}-[Pro(4S-NH2)]TAN-X1)"
assay_result = 8.11

[[record]]
molecule = "CC(C)C[C@H](NC(=O)[C@H](C)NC(=O)[C@H](CN)NC(=O)[C@H](CN)NC(=O)c1ccc(-c2ccc(Cl)cc2)cc1)C(=O)N[C@@H](C)B1O[C@@H]2C[C@@H]3C[C@@H](C3(C)C)[C@]2(C)O1 [Compound 172] ({Benzoyl(4-(4-Cl-Ph))}-[Dap][Dap]AL-{boroAla((+)-pinanediol)})"
assay_result = 6.12

[[record]]
molecule = "CCCCc1ccc(-c2ccc(C(=O)N[C@@H](CCCCN)C(=O)N3CCC[C@H]3C(=O)N[C@@H](C)C(=O)N[C@@H](CC(N)=O)C(=O)N[C@@H](C)B3O[C@@H]4C[C@@H]5C[C@@H](C5(C)C)[C@]4(C)O3)cc2)cc1 [Compound 133] ({Biphenylcarbonyl(4'-Bu)}-KPAN-{boroAla((+)-pinanediol)})"
assay_result = 6.77

[[record]]
molecule = "CC(C)C[C@H](NC(=O)[C@H](C)NC(=O)[C@H](CCCCN)NC(=O)[C@H](CCCCN)NC(=O)c1ccc(-c2ccc(Cl)cc2)cc1)C(=O)N[C@@H](C)B1OC2C[C@@H]3C[C@@H](C3(C)C)[C@]2(C)O1 (some centres unmarked) [Compound 145] ({Benzoyl(4-(4-Cl-Ph))}-KKAL-X1)"
assay_result = 6.62

[[record]]
molecule = "CCCCc1ccc(-c2ccc(C(=O)NCCC(=O)N[C@@H](CCCCN)C(=O)N[C@@H](CCCCN)C(=O)N[C@@H](C)C(=O)N[C@@H](CCCCN)C(=O)N[C@@H](C)B3OC4C[C@@H]5C[C@@H](C5(C)C)[C@]4(C)O3)cc2)cc1 (some centres unmarked) [Compound 207] ({Biphenylcarbonyl(4'-Bu)-βAla}-KKAK-X1)"
assay_result = 7.89

[[record]]
molecule = "CCCCCCc1ccc(C(=O)N[C@H](CO)C(=O)N[C@H](C)C(=O)NCC(=O)N(C)[C@H](C(=O)N[C@@H](C)C(=O)N[C@@H](CC(C)C)C(=O)NCC=O)C(C)O)cc1 (some centres unmarked) [Compound 102] ({Benzoyl(4-hexyl)}-[dS][dA]G[NMeThr(3ξ)]ALG-aldehyde)"
assay_result = 8.01

[[record]]
molecule = "CCCCc1ccc(-c2ccc(C(=O)N[C@H](CCCCN)C(=O)N[C@H](C(=O)N[C@@H](C)C(=O)N[C@@H](CCCCN)C(=O)N[C@@H](C)B(O)O)C(C)O)cc2)cc1 (some centres unmarked) [Compound 160] ({Biphenylcarbonyl(4'-Bu)}-[dK][Thr(3ξ)]AK-boroAla)"
assay_result = 6.05

[[record]]
molecule = "CCCCc1ccc(-c2ccc(C(=O)NCCC(=O)N[C@@H](CCCCN)C(=O)N[C@H](C(=O)N[C@@H](C)C(=O)N[C@@H](CC(N)=O)C(=O)N3CCC[C@H]3B3O[C@@H]4C[C@@H]5C[C@@H](C5(C)C)[C@]4(C)O3)[C@@H](C)O)cc2)cc1 [Compound 200] ({Biphenylcarbonyl(4'-Bu)-βAla}-KTAN-X7)"
assay_result = 5.92

[[record]]
molecule = "CCCCc1ccc(-c2ccc(C(=O)N[C@@H](CCCCN)C(=O)N[C@H](C(=O)N[C@H](C(=O)N[C@@H](CCCCN)C(=O)N[C@@H](C)B(O)O)C3CC3)C(C)O)cc2)cc1 (some centres unmarked) [Compound 147] ({Biphenylcarbonyl(4'-Bu)}-K[Thr(3ξ)][Gly(cPr)]K-boroAla)"
assay_result = 7.01

[[record]]
molecule = "CCCCc1ccc(-c2ccc(C(=O)N[C@H](CO)C(=O)N[C@H](C)C(=O)NCC(=O)N(C)[C@@H](CCCCN)C(=O)N[C@@H](C)C(=O)N[C@@H](CC(N)=O)C(=O)N[C@@H](C)B3OC4C[C@@H]5C[C@@H](C5(C)C)[C@]4(C)O3)cc2)cc1 (some centres unmarked) [Compound 228] ({Biphenylcarbonyl(4'-Bu)}-[dS][dA]G[NMeK]AN-X1)"
assay_result = 6.57

[[record]]
molecule = "CCCCc1ccc(-c2ccc(C(=O)N[C@@H](CCCCN)C(=O)N[C@H](C(=O)N[C@@H](C)C(=O)N[C@@H](CC(N)=O)C(=O)N[C@@H](C)B(O)O)[C@@H](C)O)cc2)cc1 [Compound 131] ({Biphenylcarbonyl(4'-Bu)}-KTAN-boroAla)"
assay_result = 7.01

